# study_system: Type 1 fimbrin D-mannose specific adhesin (Escherichia coli K-12) (UniProt P08191)
# Sequence (P08191 whole entry): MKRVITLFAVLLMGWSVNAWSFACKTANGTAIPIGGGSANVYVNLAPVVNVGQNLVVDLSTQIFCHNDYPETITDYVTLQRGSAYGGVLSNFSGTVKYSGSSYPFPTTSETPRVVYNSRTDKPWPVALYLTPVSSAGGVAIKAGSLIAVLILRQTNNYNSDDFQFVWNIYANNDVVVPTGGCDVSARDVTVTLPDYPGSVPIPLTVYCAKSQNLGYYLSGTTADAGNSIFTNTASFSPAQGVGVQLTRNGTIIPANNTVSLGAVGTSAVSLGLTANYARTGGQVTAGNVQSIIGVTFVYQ
# experiment_description: Inhibition of Escherichia coli UTI89 FimH assessed as decrease in hemagglutination of guinea pig red blood cells after 4 to 18 hrs
test_readout: EC90 (nM)

Recorded EC90, per entry:
INSERT INTO assay_data (smiles_string, test_readout, numeric_readout) VALUES
  ('Cc1cc(-c2cccc3cnccc23)ccc1[C@@H](O)[C@H]1O[C@H](CO)[C@@H](O)[C@H](O)[C@@H]1O', 'EC90', 125),
  ('CNC(=O)c1cccc(-c2ccc([C@H](O)[C@H]3O[C@H](CO)[C@@H](O)[C@H](O)[C@@H]3O)c(C)c2)c1', 'EC90', 24000),
  ('CNC(=O)c1cc(C(=O)NC)cc(-c2ccc(O[C@H]3O[C@H](CO)[C@@H](O)[C@H](O)[C@@H]3O)c(C)c2)c1', 'EC90', 16);

I. CNC(=O)c1cccc(-c2ccc([C@@H](O)[C@H]3O[C@H](CO)[C@@H](O)[C@H](O)[C@@H]3O)cc2)c1
II. Cc1cc(-c2ccc3c(c2)C(=O)NCC3)ccc1O[C@H]1O[C@H](CO)[C@@H](O)[C@H](O)[C@@H]1O
III. Cc1cc(-c2ccc3ccnc(N)c3c2)ccc1O[C@H]1O[C@H](CO)[C@@H](O)[C@H](O)[C@@H]1O
Put the molecules in ascending order of EC90. Form field (ranking): labels in requested order.
III, II, I

* * *

# experiment_description: Clearance in Sprague-Dawley rat at 3 mg/kg, iv after 5 mins to 24 hrs by LC-MS/MS analysis
# Assay type: ADME, organism-based
# stated_conditions: in vivo
Readings of clearance for the listed molecules
Unit mL/min/kg implied. Number only.

Recorded clearance, per entry:
INSERT INTO results (smiles_string, numeric_readout) VALUES
  ('Cc1cc(-c2ccc3cc[nH]c(=O)c3c2)ccc1O[C@H]1O[C@H](CO)[C@@H](O)[C@H](O)[C@@H]1O', 408),
  ('CNC(=O)c1cccc(-c2ccc(O[C@H]3O[C@H](CO)[C@@H](O)[C@H](O)[C@@H]3O)c(C)c2)c1', 98.4);

Field request: clearance | item: CNC(=O)c1cccc(-c2ccc([C@@H](O)[C@H]3O[C@H](CO)[C@@H](O)[C@H](O)[C@@H]3O)c(C)c2)c1
34.9

* * *

# experiment_description: Half life in simulated gut fluid (unknown origin)
# Type: ADME
test_readout: half-life

INSERT INTO measurements (smiles_string, result) VALUES
  ('CNC(=O)c1cc(C(=O)NC)cc(-c2ccc(O[C@H]3O[C@H](CO)[C@@H](O)[C@H](O)[C@@H]3O)c(C)c2)c1', '> 120 min');

// next entry
Field request: half-life | item: Cc1cc(-c2ccc3cc[nH]c(=O)c3c2)ccc1O[C@H]1O[C@H](CO)[C@@H](O)[C@H](O)[C@@H]1O
> 120 min

* * *

# experiment_description: Half life in liver microsomes (unknown origin)
# Format: ADME
test_readout: half-life

INSERT INTO measurements (smiles_string, result) VALUES
  ('Cc1cc(-c2ccc3cc[nH]c(=O)c3c2)ccc1O[C@H]1O[C@H](CO)[C@@H](O)[C@H](O)[C@@H]1O', '> 2 h');

// next entry
Field request: half-life | item: CNC(=O)c1cc(C(=O)NC)cc(-c2ccc(O[C@H]3O[C@H](CO)[C@@H](O)[C@H](O)[C@@H]3O)c(C)c2)c1
> 2 h

* * *

# study_system: Type 1 fimbrin D-mannose specific adhesin (Escherichia coli K-12)
# experiment_description: Binding affinity to Escherichia coli UTI89 FimH lectin domain at 100 uM after 30 mins by SYPRO Orange-staining-based differential scanning fluorimetry
test_readout: Tm (°C)

INSERT INTO assay_data (smiles_string, study_system, numeric_readout) VALUES
  ('CNC(=O)c1cccc(-c2ccc(O[C@H]3O[C@H](CO)[C@@H](O)[C@H](O)[C@@H]3O)cc2)c1', 'Type 1 fimbrin D-mannose specific adhesin (Escherichia coli K-12)', 73.2),
  ('Cc1cc(-c2ccc3c(c2)C(=O)NCC3)ccc1[C@@H](O)[C@H]1O[C@H](CO)[C@@H](O)[C@H](O)[C@@H]1O', 'Type 1 fimbrin D-mannose specific adhesin (Escherichia coli K-12)', 76.5),
  ('CNC(=O)c1cccc(-c2ccc([C@H](O)[C@H]3O[C@H](CO)[C@@H](O)[C@H](O)[C@@H]3O)cc2)c1', 'Type 1 fimbrin D-mannose specific adhesin (Escherichia coli K-12)', 67.2),
  ('CNC(=O)c1cccc(-c2ccc(O[C@H]3O[C@H](CO)[C@@H](O)[C@H](O)[C@@H]3O)c(C)c2)c1', 'Type 1 fimbrin D-mannose specific adhesin (Escherichia coli K-12)', 74.5),
  ('CNC(=O)c1cccc(-c2ccc([C@@H](O)[C@H]3O[C@H](CO)[C@@H](O)[C@H](O)[C@@H]3O)c(C)c2)c1', 'Type 1 fimbrin D-mannose specific adhesin (Escherichia coli K-12)', 75.4),
  ('Cc1cc(-c2cccc3cnccc23)ccc1[C@@H](O)[C@H]1O[C@H](CO)[C@@H](O)[C@H](O)[C@@H]1O', 'Type 1 fimbrin D-mannose specific adhesin (Escherichia coli K-12)', 74.6),
  ('Cc1cc(-c2ccc3cc[nH]c(=O)c3c2)ccc1O[C@H]1O[C@H](CO)[C@@H](O)[C@H](O)[C@@H]1O', 'Type 1 fimbrin D-mannose specific adhesin (Escherichia coli K-12)', 75.4);

* * *

# study_system: UniProt P08191
# experiment_description: Binding affinity to Escherichia coli UTI89 FimH lectin domain at 100 uM after 30 mins by SYPRO Orange-staining-based differential scanning fluorimetry
test_readout: Tm (°C)

INSERT INTO results (smiles_string, study_system, numeric_readout) VALUES
  ('Cc1cc(-c2ccc3cc[nH]c(=O)c3c2)ccc1[C@@H](O)[C@H]1O[C@H](CO)[C@@H](O)[C@H](O)[C@@H]1O', 'UniProt P08191', 77.5),
  ('Cc1cc(-c2ccc3c(c2)C(=O)NCC3)ccc1O[C@H]1O[C@H](CO)[C@@H](O)[C@H](O)[C@@H]1O', 'UniProt P08191', 75),
  ('CNC(=O)c1cccc(-c2ccc([C@@H](O)[C@H]3O[C@H](CO)[C@@H](O)[C@H](O)[C@@H]3O)cc2)c1', 'UniProt P08191', 72.8),
  ('Cc1cc(-c2cccc3cnccc23)ccc1O[C@H]1O[C@H](CO)[C@@H](O)[C@H](O)[C@@H]1O', 'UniProt P08191', 75),
  ('Cc1cc(-c2ccc3ccnc(N)c3c2)ccc1[C@@H](O)[C@H]1O[C@H](CO)[C@@H](O)[C@H](O)[C@@H]1O', 'UniProt P08191', 77.7),
  ('Cc1cc(-c2ccc3ccnc(N)c3c2)ccc1O[C@H]1O[C@H](CO)[C@@H](O)[C@H](O)[C@@H]1O', 'UniProt P08191', 75.1),
  ('CNC(=O)c1cccc(-c2ccc([C@H](O)[C@H]3O[C@H](CO)[C@@H](O)[C@H](O)[C@@H]3O)c(C)c2)c1', 'UniProt P08191', 66.4);

* * *

# study_system: Type 1 fimbrin D-mannose specific adhesin (Escherichia coli K-12) (UniProt P08191)
# experiment_description: Inhibition of Escherichia coli UTI89 FimH assessed as decrease in hemagglutination of guinea pig red blood cells after 4 to 18 hrs
test_readout: EC90 (µM)

INSERT INTO measurements (smiles_string, study_system, numeric_readout) VALUES
  ('OC[C@H]1O[C@H](n2cc(-c3ccccc3)nn2)[C@@H](O)[C@@H](O)[C@@H]1O', 'Type 1 fimbrin D-mannose specific adhesin (Escherichia coli K-12) (UniProt P08191)', 32),
  ('CNC(=O)c1cccc(-c2ccc([C@H](O)[C@H]3O[C@H](CO)[C@@H](O)[C@H](O)[C@@H]3O)cc2)c1', 'Type 1 fimbrin D-mannose specific adhesin (Escherichia coli K-12) (UniProt P08191)', 24),
  ('Cc1cc(-c2ccc3cc[nH]c(=O)c3c2)ccc1O[C@H]1O[C@H](CO)[C@@H](O)[C@H](O)[C@@H]1O', 'Type 1 fimbrin D-mannose specific adhesin (Escherichia coli K-12) (UniProt P08191)', 0.031);
